molecular target: human GLP-1R (Homo sapiens, UniProt P43220); experiment: GLP-1R Cell Assay 1: cAMP Hunter CHO-K1 GLP1R Gs cell line, HitHunter cAMP assay; type: cell-based; conditions: Table 2; cAMP Hunter CHO-K1 GLP1R Gs cells; percent activity normalized to Exendin-4
Sequence (P43220 24-463): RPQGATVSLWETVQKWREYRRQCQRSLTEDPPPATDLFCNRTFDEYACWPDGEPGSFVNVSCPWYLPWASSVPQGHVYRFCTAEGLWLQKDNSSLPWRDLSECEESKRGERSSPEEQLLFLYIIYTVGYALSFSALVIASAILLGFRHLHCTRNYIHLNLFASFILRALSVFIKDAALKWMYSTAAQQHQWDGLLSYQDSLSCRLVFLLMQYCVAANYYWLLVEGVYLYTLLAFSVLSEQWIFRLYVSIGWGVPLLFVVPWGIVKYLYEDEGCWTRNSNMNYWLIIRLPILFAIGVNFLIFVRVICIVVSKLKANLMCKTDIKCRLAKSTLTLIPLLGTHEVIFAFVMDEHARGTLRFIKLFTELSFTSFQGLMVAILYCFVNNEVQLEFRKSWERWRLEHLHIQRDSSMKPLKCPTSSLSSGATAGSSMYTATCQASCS
pEC50: −log10 of the molar value.
attribute_measured: pEC50

1) N#Cc1cnc(COc2cccc(N3CCN(Cc4nc5ccc(C(=O)O)cc5n4C[C@@H]4CCO4)CC3)n2)nc1 : 8.03

[a] N#Cc1ccc(COc2ccn(C3CCN(Cc4nc5ccc(C(=O)O)cc5n4C[C@@H]4CCO4)CC3)n2)c(F)c1
[b] O=C(O)c1ccc2nc(CN3CCC(c4cccc(OCc5nc6ccccc6s5)n4)CC3)n(C[C@@H]3CCO3)c2c1
[c] O=C(O)c1ccc2nc(CN3CCN(c4cccc(OC5CN(c6ccccc6)C5)n4)CC3)n(C[C@@H]3CCO3)c2c1
stdin: # rank by pEC50, ascending (min first) # output: labels, in the requested order
stdout: c, a, b
